Test system: IP-10
Assay: Cytokine induction in rats after intravenous administration
Type: in vivo, rat
Details: rat, 2 mpk, 48 hours after administration
Experimental: The expression of hEPO and cytokine induction in rats intravenously administered a nanoparticle composition at a dose of 2.0 mpk was measured at 6 h. […]
measurement-type: IP-10 induction (pg/mL)
Supply the numeric figure in pg/mL, leaving out any unit text.

Some compounds with known IP-10 induction results, for comparison:
CCCCCCCCC(C)OC(=O)CCCCCCCN(CCO)CCCCCCCC(=O)OC(CCCCCCCC)CCCCCCCC (stereo not shown)    970
CCCCC/C=C\C/C=C\CCCCCCCCC(CCCCCCCC/C=C\C/C=C\CCCCC)OC(=O)CCCN(C)C [MC3, DLin-MC3-DMA, reference compound]    596
CCCCCCCCC(CCC)OC(=O)CCCCCCCN(CCO)CCCCCCCC(=O)OC(CCCCCCCC)CCCCCCCC (stereo not shown)    1065

# ---- query compound ----
The measured IP-10 induction associated with CCCCCCCCC(CC)OC(=O)CCCCCCCN(CCO)CCCCCCCC(=O)OC(CCCCCCCC)CCCCCCCC (stereo not shown) reads 932

---

Tested on: luciferase (Luc) mRNA
Experiment: Luc expression (total flux) after intramuscular administration
Type: in vivo, mice
Details: 6 hours after intramuscular administration, 0.001 mpk, Luc mRNA and H10 mRNA
Reported Total flux, 0.001 mpk Dose values for a set of molecules
Supply the numeric figure in p/s, leaving out any unit text.

Some molecules with known Total flux, 0.001 mpk Dose results, for comparison:
CCCCCCCCCCCCN(CCO)CCCCCCCCCCCC(=O)OC    7.57E+04
CCCCCCCCCCCCCCN(CCO)CCCCCCCC(=O)OC(CCCCCCCC)CCCCCCCC    3.55E+06
CCCCCC/C=C\COC(=O)CCCCCCCN(CCO)CCCCCCCC(=O)OC(CCCCCCCC)CCCCCCCC    3.78E+06
CCCCCCCCC(CCCCCCCC)OC(=O)CCCCCCCN(CCO)CCCCCC    9.84E+05
CCCCCCCCC(CCCCCCCC)OC(=O)CCCCCCCN(CCO)CCCCCCCC(=O)OCC1CC1CCCCCC (stereo not drawn)    6.73E+05
CCCCCCCCCOC(=O)CCCCCCCN(CCCO)CCCCCCCC(=O)OC(CCCCCCCC)CCCCCCCC    3.28E+06

The measured Total flux, 0.001 mpk Dose associated with `CCCCCCCCCN(CCCCCCCC(=O)OC(CCCCCCCC)CCCCCCCC)CCCn1ccnc1` reads 7.81E+05

The measured Total flux, 0.001 mpk Dose associated with `CCCCCCCCCOC(=O)CCCCCCCN(CCO)CCCCCCCC(=O)N(CCCCCCCC)CCCCCCCC` reads 2.72E+06

The measured Total flux, 0.001 mpk Dose associated with CCCCCCCCCOC(=O)CCCCCCCN(CCO)CCCCCCCC(=O)OC(CC)CCCCCCCC (stereo not drawn) reads 2.45E+06

The measured Total flux, 0.001 mpk Dose associated with `CCCCCCCCCOC(=O)CCCCCCCN(CCO)CCCCCCCCCC(=O)OC(CCCCCCCC)CCCCCCCC` reads 8.27E+06

The measured Total flux, 0.001 mpk Dose associated with `CCCCCCCCCOC(=O)CCCCCCCN(CCO)CCCCCCCC(=O)OC(CCCC)CCCC` reads 1.16E+05

The measured Total flux, 0.001 mpk Dose associated with `CCCCCCCCCOC(=O)CCCCCCCN(CCO)CCCCCC(=O)OC(CCCCCCCC)CCCCCCCC` reads 2.55E+06
